Source: PubChem BioAssay (NCI)

tested on: MALME-3M melanoma; assay: NCI-60 one-dose screen, 48 h; conditions: 10 µM unless noted
Compounds without any hit were thinned out: in the full panel of roughly 83,000, 20% have a hit. Activity calls are given as the source filed them. Rule for the calls: active = growth percent below 10; inactive = the rest.
Outcome codes: active, inactive

Cc1nn(-c2ccccc2)c2nc(C)n(CC(=O)N/N=C/c3ccccc3O)c(=O)c12	inactive
C/C(=N\Nc1ccc(C(=O)O)cc1)c1cnn(-c2cc(=O)[nH]c3ccc(C)cc23)c1C	inactive
CCc1ccccc1-c1nc(CN[C@@H]2C[C@@H]3C[C@H]([C@H]2C)C3(C)C)c(C)o1	active
Cc1ccc2c(c1)/C(=C/C(=O)c1cc3ccccc3oc1=O)C(=O)N2	active
O=C(N/N=C/c1ccc(B(O)O)s1)c1[nH]c2ccc(Br)cc2c1-c1ccccc1	active
CN(C)c1nc(NCCNS(=O)(=O)c2ccc(C(=O)/C=C/c3ccc(F)cc3)cc2)nc(N2CCOCC2)n1	inactive
CN(C)CCOc1ccc(C(=O)C2[C@H](c3ccc(Cl)cc3)[C@@H](c3ccccc3)NC23C(=O)Nc2ccc(Cl)cc23)cc1 (stereo partly drawn)	active
O=C(Cc1c(-c2cccc([N+](=O)[O-])c2)n(-c2ncnc3c2c(-c2ccccc2)c(-c2ccccc2)n3Cc2ccccc2)[nH]c1=O)c1ccc(Cl)c(Cl)c1	active
COc1ccc(-c2cc(C(=O)Oc3ccc(C=O)cc3OC)nn2-c2ccc(S(C)(=O)=O)cc2)cc1	inactive
COc1cc(CNC(=O)C[C@H](C)CCC=C(C)C)ccc1OCc1cn(-c2ccc(Br)cc2)nn1	inactive
CN1C(=O)/C(=C\C(=O)c2cc3ccccc3oc2=O)c2ccccc21	inactive
O=C(CSc1nnc(-c2ccc(-c3nc4ccc(Cl)cc4[nH]3)cc2)o1)Nc1ccc(Cl)cc1	active
O=c1[nH]c2ccccc2cc1CSc1ccccc1Nc1nccc(-c2ccc3c(c2)OCO3)n1	inactive
COc1cc(C2CC(c3ccc(Cl)cc3)=Nc3c(N)nc(N)nc3N2)ccc1Oc1nc(Nc2ccc(F)cc2)nc(N(C)C)n1 (stereo not drawn)	inactive
c1n[nH]cc1-c1nc2ccc3cn[nH]c3c2c2c1CCCC2	inactive
COC(=O)c1ccc(-c2c(-c3ccccc3)c(F)c3oc(C(=O)OC)c(N)c3c2-c2ccccc2)cc1	inactive
CC(=O)C[n+]1cccc2c3ccccc3ccc21	inactive
CNS(=O)(=O)N1CCc2c(Br)c3c(c(OC)c2C1CCc1ccccc1)OCO3 (stereo not drawn)	active
